tested on: A498; assay: AUC of dose-response viability curve, drug alone (arbitrary (AUC of normalised viability)); higher = less growth inhibition; settings: treatment: drug alone; 5 days
measurement-label: AUC of dose-response viability curve
Numbers only.

Give measured AUC of dose-response viability curve for every item shown.
1. Nc1cccc2c1C(=O)N(C1CCC(=O)NC1=O)C2=O (stereo not given) [Pomalidomide]
2. CNC(=O)Nc1ccc(-c2nc(N3CC4CCC(C3)O4)c3cnn(C4CCC5(CC4)OCCO5)c3n2)cc1
3. CC(=O)Nc1nc(C)c(-c2ccc(Cl)c(S(=O)(=O)NCCO)c2)s1

Result:
1. 3.01
2. 2.28
3. 4.19

----------
test system: 786-O; assay: AUC of dose-response viability curve, drug + dasatinib, normalised to DMSO (arbitrary (AUC of normalised viability)); higher = less growth inhibition; details: treatment: drug + dasatinib (fixed dose, not stated); 5 days
Answer each item with its documented AUC of dose-response viability curve.
Numbers only.

Worked examples follow.
NC(=O)c1ccc(-c2nc(-c3ccc4c(c3)OCO4)c(-c3ccccn3)[nH]2)cc1 + Cc1nc(Nc2ncc(C(=O)Nc3c(C)cccc3Cl)s2)cc(N2CCN(CCO)CC2)n1 [dasatinib]; 2.24
Cc1cc(C(C)Nc2ccccc2)c2nc(N3CCOCC3)cc(=O)n2c1 (stereo not given) [TGX-221] + Cc1nc(Nc2ncc(C(=O)Nc3c(C)cccc3Cl)s2)cc(N2CCN(CCO)CC2)n1 [dasatinib]; 2.04
Cc1ccccc1-n1c(Cn2cnc3c(N)ncnc32)nc2cccc(C)c2c1=O + Cc1nc(Nc2ncc(C(=O)Nc3c(C)cccc3Cl)s2)cc(N2CCN(CCO)CC2)n1 [dasatinib]; 1.98
COc1ccc(S(=O)(=O)N(C(C)=O)c2ccccc2/C=C/c2cc[n+]([O-])cc2)cc1 [HMN-214] + Cc1nc(Nc2ncc(C(=O)Nc3c(C)cccc3Cl)s2)cc(N2CCN(CCO)CC2)n1 [dasatinib]; 1.18

Task: For the record Cc1c(NC(=O)OC[C@@H]2COCCN2)cn2ncnc(Nc3ccc4c(cnn4Cc4cccc(F)c4)c3)c12.Cl + Cc1nc(Nc2ncc(C(=O)Nc3c(C)cccc3Cl)s2)cc(N2CCN(CCO)CC2)n1 [dasatinib] , what value of AUC of dose-response viability curve is listed for 786-O?
Result: 2.62

----------
tested on: UO-31; test: AUC of dose-response viability curve, drug alone (arbitrary (AUC of normalised viability)); higher = less growth inhibition; details: treatment: drug alone; 5 days
measurement-label: AUC of dose-response viability curve
One number for each entry.

COc1cc2ncnc(Nc3ccc(O)c(Br)c3)c2cc1OC; 6.61

Give measured AUC of dose-response viability curve for every item shown.
1. Cc1cc(C)c(/C=C2\C(=O)Nc3ccccc32)[nH]1 [Semaxanib (SU5416)]
2. CC(C)(C)c1cc(C=C(C#N)C#N)cc(Br)c1O
3. CNC(=O)c1c(F)cccc1Nc1nc(Nc2cc3c(cc2OC)CCN3C(=O)CN(C)C)nc2[nH]ccc12

Result:
1: 4.68; 2: 4.79; 3: 4.52

----------
tested on: CAKI-1; assay: GI50, drug alone; higher = less potent; conditions: treatment: drug alone; 5 days
measurement-label: GI50, drug alone (µM)
Give bare numbers, in µM.

CC[C@@H]1C(=O)N(C)c2cnc(Nc3ccc(C(=O)N[C@H]4CC[C@H](N5CCN(CC6CC6)CC5)CC4)cc3OC)nc2N1C(C)C; 0.157
FC(F)c1nc2ccccc2n1-c1nc(N2CCOCC2)nc(N2CCOCC2)n1; 0.431
CN1CC[C@H](c2c(O)cc(O)c3c(=O)cc(-c4ccccc4Cl)oc23)[C@H](O)C1.Cl [Flavopiridol hydrochloride]; 0.17

Give measured GI50, drug alone for every item shown.
1. CNC(=O)c1c(F)cccc1Nc1nc(Nc2cc3c(cc2OC)CCN3C(=O)CN(C)C)nc2[nH]ccc12
2. C=CCc1cccc(/C=N/NC(=O)CN2CCN(Cc3ccccc3)CC2)c1O
3. O=C(NOC[C@H](O)CO)c1ccc(F)c(F)c1Nc1ccc(I)cc1F
4. O=C1NC(=O)[C@@H](c2cn3c4c(cccc24)CCC3)[C@@H]1c1c[nH]c2ccccc12 [ARQ 197 (Tivantinib)]
5. CCc1cc2c(cc1N1CCC(N3CCOCC3)CC1)C(C)(C)c1[nH]c3cc(C#N)ccc3c1C2=O
6. O=C(Nc1ccc(OC(F)(F)F)cc1)c1sccc1NCc1ccnc2ccccc12
7. CNC(=O)c1cc(COc2nnc(Nc3ccc(Cl)cc3)c3ccoc23)ccn1
8. COC(=O)Nc1ccc(-c2nc(N3CCOCC3)c3cnn(C4CCN(C(=O)OC)CC4)c3n2)cc1

Result:
3.46
3.23
0.32
1.06
5.02
8.11
6.76
1.26
